So I've got AC50 readings for Estrogen receptor (Homo sapiens, UniProt P03372), take a look.
experimental_readout: AC50

>  <molecule>
Clc1ccc(C(Cn2ccnc2)OCc2ccc(Sc3ccccc3)cc2)c(Cl)c1 (stereo not drawn) [FENTICONAZOLE]

>  <experimental_readout>
AC50

>  <result>
> 10 µM

$$$$
>  <molecule>
CN1c2ccccc2C(NCCCCCCC(=O)O)c2ccc(Cl)cc2S1(=O)=O (stereo not drawn) [TIANEPTINE]

>  <experimental_readout>
AC50

>  <result>
> 30 µM

$$$$
>  <molecule>
CCN(CC)C(=O)C1CN2CCc3cc(OC)c(OC)cc3C2CC1OC(C)=O (stereo not drawn) [BENZQUINAMIDE]

>  <experimental_readout>
AC50

>  <result>
> 30 µM

$$$$
>  <molecule>
CCn1cc(C(=O)O)c(=O)c2cc(F)c(N3CCNCC3)nc21 [ENOXACIN]

>  <experimental_readout>
AC50

>  <result>
> 30 µM

$$$$
>  <molecule>
CCCCC1(CC)C(=O)NC(=O)NC1=O [BUTETHAL]

>  <experimental_readout>
AC50

>  <result>
> 30 µM

$$$$
>  <molecule>
Nc1nc(F)nc2c1ncn2[C@@H]1O[C@H](COP(=O)(O)O)[C@@H](O)[C@@H]1O [FLUDARABINE PHOSPHATE]

>  <experimental_readout>
AC50

>  <result>
> 30 µM

$$$$
>  <molecule>
CC(/C=C1\SC(=S)N(CC(=O)O)C1=O)=C\c1ccccc1

>  <experimental_readout>
AC50

>  <result>
> 30 µM

$$$$
>  <molecule>
CC(=O)OCC(CCn1cnc2cnc(N)nc21)COC(C)=O [FAMCICLOVIR]

>  <experimental_readout>
AC50

>  <result>
> 30 µM

$$$$
>  <molecule>
C#C[C@]1(O)CC[C@H]2[C@@H]3CCc4cc(OC)ccc4[C@H]3CC[C@@]21C [MESTRANOL]

>  <experimental_readout>
AC50

>  <result>
0.136 µM

$$$$
>  <molecule>
CC(=O)c1ccc2c(c1)N(CCCN1CCC(CCO)CC1)c1ccccc1S2 [PIPERACETAZINE]

>  <experimental_readout>
AC50

>  <result>
> 30 µM

$$$$
>  <molecule>
COc1ccnc(C[S+]([O-])c2nc3ccc(OC(F)F)cc3[nH]2)c1OC (stereo not drawn) [PANTOPRAZOLE]

>  <experimental_readout>
AC50

>  <result>
> 30 µM

$$$$
>  <molecule>
CO[C@@]1(NC(=O)Cc2cccs2)C(=O)N2C(C(=O)O)=C(COC(N)=O)CS[C@@H]21 [CEFOXITIN]

>  <experimental_readout>
AC50

>  <result>
> 30 µM

$$$$
>  <molecule>
CC#CCn1c(N2CCC[C@@H](N)C2)nc2c1c(=O)n(Cc1nc(C)c3ccccc3n1)c(=O)n2C [LINAGLIPTIN]

>  <experimental_readout>
AC50

>  <result>
> 30 µM

$$$$
>  <molecule>
COc1ccc(/C=C/C(=O)Nc2ccccc2C(=O)O)cc1OC

>  <experimental_readout>
AC50

>  <result>
> 30 µM

$$$$
>  <molecule>
CC(C)=CCOc1ccc(/C=C/C(=O)c2ccc(OCC=C(C)C)cc2OCC(=O)O)cc1 [SOFALCONE]

>  <experimental_readout>
AC50

>  <result>
> 30 µM

$$$$
>  <molecule>
CN1C[C@H](C(=O)N[C@]2(C)O[C@@]3(O)[C@@H]4CCCN4C(=O)[C@H](Cc4ccccc4)N3C2=O)C[C@@H]2c3cccc4[nH]cc(c34)C[C@H]21 [DIHYDROERGOTAMINE]

>  <experimental_readout>
AC50

>  <result>
> 30 µM

$$$$
>  <molecule>
CCOC(=O)NNc1ccc(N(CC)CC(C)O)nn1 (stereo not drawn) [CADRALAZINE]

>  <experimental_readout>
AC50

>  <result>
> 30 µM

$$$$
>  <molecule>
O=C(CCCN1CCC(n2c(O)nc3ccccc32)CC1)c1ccc(F)cc1 [BENPERIDOL]

>  <experimental_readout>
AC50

>  <result>
> 30 µM

$$$$
>  <molecule>
CC(=O)OCC(=O)[C@@]1(O)CC[C@H]2[C@@H]3CCC4=CC(=O)CC[C@]4(C)C3=CC[C@@]21C [ANECORTAVE ACETATE]

>  <experimental_readout>
AC50

>  <result>
> 30 µM

$$$$
>  <molecule>
CNCCCC1c2ccccc2C=Cc2ccccc21 [PROTRIPTYLINE]

>  <experimental_readout>
AC50

>  <result>
> 10 µM

$$$$
>  <molecule>
C#C[C@]1(O)CC[C@H]2[C@@H]3CCC4=CC(=O)CCC4=C3C=C[C@@]21CC [GESTRINONE]

>  <experimental_readout>
AC50

>  <result>
6.1 µM

$$$$
>  <molecule>
CN(C)c1cc(CNCC(C)(C)C)c(O)c2c1C[C@H]1C[C@H]3[C@H](N(C)C)C(O)=C(C(N)=O)C(=O)[C@@]3(O)C(O)=C1C2=O [OMADACYCLINE]

>  <experimental_readout>
AC50

>  <result>
> 30 µM

$$$$
>  <molecule>
CC1(C)O[C@@H]2[C@@H](CO[C@@]3(COS(N)(=O)=O)OC(C)(C)O[C@@H]23)O1 [TOPIRAMATE]

>  <experimental_readout>
AC50

>  <result>
> 30 µM

$$$$
>  <molecule>
CN(C)c1cc(NC(=O)CNC(C)(C)C)c(O)c2c1C[C@H]1C[C@H]3[C@H](N(C)C)C(O)=C(C(N)=O)C(=O)[C@@]3(O)C(O)=C1C2=O [TIGECYCLINE]

>  <experimental_readout>
AC50

>  <result>
> 30 µM

$$$$
>  <molecule>
CCC(C)(Oc1ccc(C2(c3ccc(OC(C)(CC)C(=O)O)cc3)CCCCC2)cc1)C(=O)O (stereo not drawn) [CLINOFIBRATE]

>  <experimental_readout>
AC50

>  <result>
> 30 µM

$$$$
>  <molecule>
CCCC(C)(COC(N)=O)COC(=O)NC(C)C (stereo not drawn) [CARISOPRODOL]

>  <experimental_readout>
AC50

>  <result>
> 30 µM

$$$$
>  <molecule>
C=CC(N)CCC(=O)O (stereo not drawn) [VIGABATRIN]

>  <experimental_readout>
AC50

>  <result>
> 10 µM

$$$$
>  <molecule>
N#C[C@@H]1CCCN1C(=O)CNC12CC3CC(CC(O)(C3)C1)C2 [VILDAGLIPTIN]

>  <experimental_readout>
AC50

>  <result>
> 30 µM

$$$$
>  <molecule>
COc1cccc(N(C)C(=S)Oc2ccc3c(c2)CCCC3)n1 [LIRANAFTATE]

>  <experimental_readout>
AC50

>  <result>
> 30 µM

$$$$
>  <molecule>
CCN(CC)CCOC(=O)c1ccc(N)cc1Cl [CHLOROPROCAINE]

>  <experimental_readout>
AC50

>  <result>
> 30 µM

$$$$
>  <molecule>
CC1(C)C(C=C(Cl)Cl)C1C(=O)OCc1cccc(Oc2ccccc2)c1 (stereo not drawn) [PERMETHRIN]

>  <experimental_readout>
AC50

>  <result>
> 30 µM

$$$$
>  <molecule>
COc1ccc2c(c1)[C@]13CCCC[C@@H]1[C@H](C2)N(C)CC3 [DEXTROMETHORPHAN]

>  <experimental_readout>
AC50

>  <result>
> 30 µM

$$$$
>  <molecule>
[H]/N=C(/N)N[C@H]1[C@H](O)[C@@H](O)[C@H](O[C@@H]2O[C@@H](C)[C@](O)(C=O)[C@H]2O[C@@H]2O[C@@H](CO)[C@H](O)[C@@H](O)[C@@H]2NC)[C@@H](N/C(N)=N\[H])[C@@H]1O [STREPTOMYCIN]

>  <experimental_readout>
AC50

>  <result>
> 30 µM

$$$$

Values compiled from ChEMBL document CHEMBL5291721.
